targetOrTestSystem: human CD28 (human, UniProt P10747 19-220)
assayRemarks: cell-based or functional assay

binder	MLR assay (EC50) / nM
1h-239-824 (other) VL: DIQMTQSPSSLSASVGDRVTITCRASQSIYPFLEWYQQKPGKAPKLLIYFTSRLRQGVPSRFSGSGSGTDFTLTISSLQPEDFATYYCLQNVTNPATFSQGTKVEIKR	6
1h-93-204 (other) VH: EVQLLESGGGLVQPGGSLRLSCAASGFTFYTAEMAWVRQAPGKGLEWVSSIMSNGIRTYYADSVKGRFTISRDNSKNTLYLQMNSLRAEDTAVYYCARRESSSSRTVFDYWGQGTLVTVSS	1200
1h-79-28 (other) VL: DIQMTQSPSSLSASVGDRVTITCRASQPIGHSLGWYQQKPGKAPKLLIYWASMLQSGVPSRFSGSGSGTDFTLTISSLQPEDFATYYCQQMLRTPFMFGQGTKVEIKR	109
1h-99-2115 (other) VH: EVQLLESGGGLVQPGGSLRLSCAASGFTFKDKNMSWVRQAPGKGLEWVSWIEAPGVQTFYADSVRGRFTISRDNSKNTLYLQMNSLRAEDTAVYYCARSPFGPLYGFDYRGQGTLVTVSS	12
1h-35-2 (other) VL: DIQMTQSPSSLSASVGDRVTITCRASQYIGSALGWYQQKPGKAPKLLIYRASHLQSGVPSRFSGSGSGTDFTLTISSLQPEDFATYYCQQLAIRPFTFGQGTKVEIKR	197
1h-239-807 (other) VL: DIQMTQSPSSLSASVGDRVTITCRASRAIWPFLEWYQQKPGKAPKLLIYFTSRLQSGVPSRFSGSGSGTDFTLTISSLQPEDFATYYCLQNVTNPATFSQGTKVEIKR	6
1h-99-278 (other) VH: EVQLLESGGGLVQPGGSLRLSCAASGFTFPHSNMSWARQAPGKGLEWVSWIEDTGTQTFYADSVKGRFTISRDNSKNTLYLQMNSLRAEDTAVYYCAKSPFGPLYGFDYRGQGTLVTVSS	13
1h-99-201 (other) VH: EVQLLESGGGLVQPGGSLRLSCAASGFTFHRWNMSWARQAPGKGLEWVSWIEDTGTQTFYADSVKGRFTISRDNSKNTLYLQMNSLRAEDTAVYYCAKSPFGPLYGFDYRGQGTLVTVSS	18
